- assay summary: Partition coefficient (logP)
- Type: physicochemical
- setup conditions: octanol/water
result type: logP
Provide a numeric answer; units are not to be included.

1) c1ccc(CCCCc2nc3ccccc3[nH]2)cc1
4.96
2) c1cncc(-c2nc3ccccc3[nH]2)c1
1.7
3) Brc1ccc(OCc2nc3ccccc3[nH]2)cc1
3.77
4) CCc1nc2ccccc2[nH]1
1.93
5) Cc1nc2cc(NC(=O)c3ccccc3)ccc2[nH]1
3.19
6) O=C(Nc1cc(Cl)cc2nc[nH]c12)c1ccccc1
2.68
7) Cc1nc2ccc([N+](=O)[O-])cc2[nH]1
1.69
8) c1ccc(OCCc2nc3ccccc3[nH]2)cc1
3.16
9) NCc1nc2ccccc2[nH]1
-0.06
10) O=[N+]([O-])c1cccc2[nH]cnc12
2.01

Supply recorded logP for Cc1nc2cc(C)c(C)cc2[nH]1 here.
2.4

Supply recorded logP for CCCCCCCc1nc2cc(C)ccc2[nH]1 here.
4.94

Supply recorded logP for OC(c1ccccc1)c1nc2ccccc2[nH]1 (stereo not given) here.
1.47

Supply recorded logP for O=[N+]([O-])c1cc(Cl)cc2[nH]cnc12 here.
3.01

Supply recorded logP for Cc1nc2cc(Cl)cc(Cl)c2[nH]1 here.
3.31

Supply recorded logP for Cc1cc(C)cc(OCc2nc3ccccc3[nH]2)c1 here.
3.5

Supply recorded logP for CCCCCc1nc2ccccc2[nH]1 here.
3.43

Supply recorded logP for CCCCc1nc2ccccc2[nH]1 here.
2.93

Supply recorded logP for CCCCCCc1nc2ccccc2[nH]1 here.
3.93

Supply recorded logP for CCCCCCCc1nc2cc(C)c(C)cc2[nH]1 here.
5.4

Supply recorded logP for Cc1ccc2[nH]cnc2c1 here.
1.89

Supply recorded logP for c1ccc2c(Cc3nc4ccccc4[nH]3)cccc2c1 here.
4.8

Supply recorded logP for Clc1cc2nc[nH]c2cc1Cl here.
3.17
